Test: Phase I metabolic stability in rat liver microsomes
Assay type: in vitro ADME
Entries and their half-life values follow.
endpoint: half-life (min)

> print(dat)
                                   compound  result.value
1  CC(O)CN1CCN(CCSC(c2ccc(F)cc2)c2ccc(F)cc2)CC1 (centres unmarked) [JJC8-089]            14
2  Fc1ccc(C(SCCNCCCc2ccccc2)c2ccc(F)cc2)cc1 [JJC8-016]             9
3  CC(O)CN1CCN(CC[S+]([O-])C(c2ccc(F)cc2)c2ccc(F)cc2)CC1 (centres unmarked) [JJC8-091]           126
4  [O-][S+](CCN1CCN(CC(O)Cc2ccccc2)CC1)C(c1ccc(F)cc1)c1ccc(F)cc1 (centres unmarked) [JJC8-088]            39
5  NC(=O)C[S@@+]([O-])C(c1ccccc1)c1ccccc1 [R-MOD, reference compound]            55
